Experiment: Tigecycline plasma PK and % F after PO enteric-coated capsule in dogs
Type: in vivo, Beagle dogs
Details: female, beagle, dog, plasma, po, 15 mg, Tigecycline Plasma Concentration, 60 min; PO 15 mg enteric-coated capsule with 500 mg CA and 100 mg LLC, SC424; mean
Experimental: Adult beagle dogs weighing approximately 9 to 15 kg were used in the study. […] Room temperature was set to be maintained between approximately 20±5° C. Relative humidity was monitored but not controlled. […] The unknown concentration in dog plasma samples was determined by interpolation of the peak area ratios of analyte:internal standard versus the ratio of their nominal concentrations into the regression line obtained from calibration standards spiked in pooled dog plasma. […]
quantity name: concentration at 60 min (ng/mL)
// note: answer is a bare numeric in ng/mL

Reported concentration at 60 min of CN(C)c1cc(NC(=O)CNC(C)(C)C)c(O)c2c1C[C@H]1C[C@H]3[C@H](N(C)C)C(O)=C(C(N)=O)C(=O)[C@@]3(O)C(O)=C1C2=O : 18.7

----------
Assay: Tigecycline plasma PK after IV bolus in dogs
Type: in vivo, Beagle dogs
Conditions: female, beagle, dog, plasma, intravenous, 5 mg, Tigecycline Plasma Concentration, 360 min; 5 mg IV in PBS ([…]), SC431; mean
quantity name: concentration at 360 min (ng/mL)
Report the value in ng/mL with no unit label.

Documented concentration at 360 min of CN(C)c1cc(NC(=O)CNC(C)(C)C)c(O)c2c1C[C@H]1C[C@H]3[C@H](N(C)C)C(O)=C(C(N)=O)C(=O)[C@@]3(O)C(O)=C1C2=O [Tigecycline] : 16.5

----------
Assay: Tigecycline plasma PK and % F after PO enteric-coated capsule in dogs
Assay type: in vivo, Beagle dogs
Details: female, beagle, dog, plasma, po, 15 mg, Tigecycline Plasma Concentration, 90 min; PO 15 mg unformulated enteric-coated capsule, SC424; mean
quantity name: concentration at 90 min
Show the value, then the unit it is measured in.

Briefly, concentration at 90 min measured for CN(C)c1cc(NC(=O)CNC(C)(C)C)c(O)c2c1C[C@H]1C[C@H]3[C@H](N(C)C)C(O)=C(C(N)=O)C(=O)[C@@]3(O)C(O)=C1C2=O : 0 ng/mL

----------
Assay: Tigecycline plasma PK and % F after intraduodenal (ID) injection in anesthetized rats
Format: in vivo, Sprague-Dawley Rats
Settings: female, Sprague-Dawley, rat, plasma, 4.6 mg/kg, RA861, ID, 26 mM LLC alone, mean dose 4.6 mg/kg
quantity name: Tmax (min)
# value in min; strip the unit string

CN(C)c1cc(NC(=O)CNC(C)(C)C)c(O)c2c1C[C@H]1C[C@H]3[C@H](N(C)C)C(O)=C(C(N)=O)C(=O)[C@@]3(O)C(O)=C1C2=O has a reported Tmax of 18

----------
Test: Tigecycline plasma PK after IV bolus in dogs
Format: in vivo, Beagle dogs
Details: female, beagle, dog, plasma, iv, […], IV, Study 2 (SC431), 5 mg ([…]); mean (% CV); read-out: AUC(0-t)
quantity name: AUC(0-t) (ng·h/mL)
Give the value in ng·h/mL but do not write ng·h/mL after it.

Lab note: measured AUC(0-t) of CN(C)c1cc(NC(=O)CNC(C)(C)C)c(O)c2c1C[C@H]1C[C@H]3[C@H](N(C)C)C(O)=C(C(N)=O)C(=O)[C@@]3(O)C(O)=C1C2=O was 411
